target: T1, human G-protein-coupled receptor family C group 5 member D (GPRC5D) (human, UniProt Q9NZD1 1-345); test: FACS, NCI-H929 cells
T1 construct: whole, on cells; also called human GPRC5D protein
T1 sequence (Q9NZD1 whole entry): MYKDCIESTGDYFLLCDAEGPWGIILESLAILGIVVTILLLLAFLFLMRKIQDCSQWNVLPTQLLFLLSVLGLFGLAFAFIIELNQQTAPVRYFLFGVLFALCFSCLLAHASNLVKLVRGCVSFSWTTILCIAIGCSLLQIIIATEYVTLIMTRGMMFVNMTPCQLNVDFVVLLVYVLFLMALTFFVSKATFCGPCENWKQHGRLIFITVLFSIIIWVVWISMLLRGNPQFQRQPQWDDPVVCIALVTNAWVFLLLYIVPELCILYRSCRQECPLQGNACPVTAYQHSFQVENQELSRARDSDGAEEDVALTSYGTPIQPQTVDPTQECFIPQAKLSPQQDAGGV
Attribute Measured: Bottom
// response body must contain only the number

Would you please look over these solved cases?
[
  {
    "Binder": "58-H3L1 (antibody, V domains shown, humanized 58F9G10, VH v3 x VL v1) VH: QVQLVQSGAEVKKPGASVKVSCKASGYSFTGYYIHWVKQAPGQGLEWIGYISSYNAATSFNQKFKGRVTFTVDTSTSTVYMEFSSLRSEDTAVYYCARTELRGPWFAYWGQGTLVTVSS VL: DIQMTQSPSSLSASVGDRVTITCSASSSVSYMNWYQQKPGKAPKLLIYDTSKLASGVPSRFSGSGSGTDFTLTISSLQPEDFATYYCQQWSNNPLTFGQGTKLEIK",
    "Assay Value": 276
  },
  {
    "Binder": "6-H4L3 (antibody, V domains shown, humanized 6G10D9, VH v4 x VL v3) VH: QVQLVQSGAEVAKPGASVKMSCKASGYTFTTYTMHWVKQAPGQGLEWLGYINPSSGYTNYNQKFKDRVTLTADTSTSTVYMELSSLRSEDTAVYYCASLRSRGYFDYWGQGTLLTVSS VL: DIQMTQSPSFLSTSVGDRVTITCKASQNVGTAVVWYQQKPGKSPKLLIYSASNRYTGVPSRFSGSGSGTEFTLTISSMQPEDFATFFCQQYSSYPYTFGQGTKLEIK",
    "Assay Value": 80
  },
  {
    "Binder": "37B9C4-XI (antibody, V domains shown, also called 37B9C4 (chimeric); 37-XI) VH: EVNLEESGGGLVQPGGSMKLSCVASGFTFSDYWMNWVRQSPEKGLEWVAEIRLKSNNYATHYAESVKGRFTISRDDSKSSVYLQMNNLRAEDTGIYYCTRPLLWFRRYYAMDYWGQGTSVTVSS VL: DIQMTQTTSSLSASLGDRITISCSASQGISNYLNWYQQKPDGTVKLLIYYTSSLHSGVPSRFSGSGSGTDYSLTISNLEPADIATYYCQQYSKLPFTFGSGTKLEIK",
    "Assay Value": 338
  }
]

Lab note: next binder to report on.
(Q) Tell me Bottom reported for 58F9G10-XI (antibody, V domains shown, also called 58F9G10 (chimeric); 58-XI) VH: EVQLQQSGPELVKTGASVKISCKASGYSFTGYYIHWVKQSHGKSLEWIGYISCYNGATSFNQKFKGKATFTVDTSSSTAYMQFNSLTSEDSAVYYCARTELRGPWFAYWGQGTLVTVSA VL: QTVLTQSPAIMSASPGEKVTMTCSASSSVSYMNWYQQKSGTSPKRWIYDTSKLASGVPARFSGSGSGTSYSLTISSMEAEDAATYYCQQWSNNPLTFGAGTKLELK
(A) 261
